Values of IC50 for Tyrosine-protein kinase JAK2 (Homo sapiens), collected from a number of published sources:

compound | system | IC50
CS(=O)(=O)N(CC#N)c1ccc(-c2ccnc(Nc3ccc(N4CCOCC4)cc3)n2)cc1 | Tyrosine-protein kinase JAK2 (Homo sapiens) | < 0.1 µM
N#CCC1(n2cc(-c3nc(-c4cnn(C5COC5)c4)cc4nccn34)cn2)CC2(CCC2)C1 | Tyrosine-protein kinase JAK2 (Homo sapiens) | 0.01 to 0.1 µM
CCC(CC)n1cc(-c2nc(-c3cnn([C@H]4C[C@H](O)C4)c3)cn3nccc23)cn1 | Tyrosine-protein kinase JAK2 (Homo sapiens) | 0.01 to 0.1 µM
CCOC(=O)CCn1cc(Nc2ncc3ccn(CC(CC)C(C)C)c3n2)cn1 (stereo not shown) | Tyrosine-protein kinase JAK2 (Homo sapiens) | < 0.1 µM
Cc1cc(C(=O)N2CC[C@H](Oc3ccc(-c4ncnc(Nc5ccc(N6CCN(C7COC7)CC6)cc5)n4)cc3C#N)[C@H](F)C2)[nH]n1 | Tyrosine-protein kinase JAK2 (Homo sapiens) | 0.164 µM
N#Cc1cc(-c2ncnc(Nc3ccc(N4CCN(C5COC5)CC4)cc3)n2)ccc1O[C@H]1CCN(C(=O)c2ccncn2)C[C@H]1F | Tyrosine-protein kinase JAK2 (Homo sapiens) | 0.572 µM
O=C1c2cc3nc(-c4c(NC[C@@H](O)c5cccc(Cl)c5)cc[nH]c4=O)[nH]c3cc2C(=O)N1CCc1ccncc1 | Tyrosine-protein kinase JAK2 (Homo sapiens) | 5 to 15 µM
O=C(NCCC(F)(F)F)c1noc2c1CN(c1ncnc3[nH]ccc13)CC21CC1 | Tyrosine-protein kinase JAK2 (Homo sapiens) | 0.1 to 0.5 µM
CN1CCN(c2ccc(-c3cc4nccn4c(-c4cnn(C(CC#N)C5CC5)c4)n3)cn2)CC1 (stereo not shown) | Tyrosine-protein kinase JAK2 (Homo sapiens) | 0.01 to 0.1 µM
N#CCC1(n2cc(-c3ncnc4[nH]ccc34)cn2)CN(C2CCN(C(=O)c3ccc(C(F)(F)F)cc3F)CC2)C1 | Tyrosine-protein kinase JAK2 (Homo sapiens) | ≤ 0.01 µM
N#CCC1(n2ccc(-c3ncnc4[nH]ccc34)c2)CN(C2CCN(C(=O)Nc3ccc(F)cc3F)CC2)C1 | Tyrosine-protein kinase JAK2 (Homo sapiens) | 0.01 to 0.05 µM
Cc1ccc(OC[C@H](O)CNc2cc[nH]c(=O)c2-c2nc3cc4c(cc3[nH]2)C(=O)N(C2CCNCC2)C4=O)c(C)c1 | Tyrosine-protein kinase JAK2 (Homo sapiens) | 0.5 to 5 µM
N#CCC1(n2cc(-c3ccnc(Nc4ccc(OCCN5CCCC5)cc4)n3)cn2)CC(C#N)C1 (single isomer, unassigned) | Tyrosine-protein kinase JAK2 (Homo sapiens) | < 0.1 µM
CC=CCC1(n2cc(-c3nc(-c4cnn(C)c4)cc4nccn34)cn2)CN(S(=O)(=O)C(F)(F)F)C1 | Tyrosine-protein kinase JAK2 (Homo sapiens) | 0.01 to 0.1 µM
NC(=O)c1cc(-c2ncccn2)cc2c1[nH]c1cc(C(=O)N3CCOCC3)ccc12 | Tyrosine-protein kinase JAK2 (Homo sapiens) | 0.001 µM
N#CCC(C1CCCC1)n1cc(-c2ccnc(Nc3ccc(C(=O)N4CCNC(=O)C4)cc3)n2)cn1 (racemic) | Tyrosine-protein kinase JAK2 (Homo sapiens) | < 0.1 µM
